Value source: ChEMBL document CHEMBL1123302

Activity values for the compounds below.
- Assay Target: Substance-P receptor (Cavia porcellus) (UniProt P30547)
- Sequence (P30547 whole entry): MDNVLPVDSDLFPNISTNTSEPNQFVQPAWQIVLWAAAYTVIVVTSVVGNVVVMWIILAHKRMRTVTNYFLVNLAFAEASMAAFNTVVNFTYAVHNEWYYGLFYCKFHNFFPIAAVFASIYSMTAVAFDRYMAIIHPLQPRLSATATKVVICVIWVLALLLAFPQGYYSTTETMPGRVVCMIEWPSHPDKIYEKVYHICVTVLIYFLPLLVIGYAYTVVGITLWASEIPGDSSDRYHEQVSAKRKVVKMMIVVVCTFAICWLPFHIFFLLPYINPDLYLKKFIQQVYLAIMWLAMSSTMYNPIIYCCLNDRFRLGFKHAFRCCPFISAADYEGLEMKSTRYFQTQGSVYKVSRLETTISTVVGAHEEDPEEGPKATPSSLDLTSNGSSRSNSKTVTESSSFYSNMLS
- Experiment Notes: In vitro inhibition of substance P induced contractions of the guinea pig ileum at 5 uM.
- Type: tissue-based

// known answers, use as guide
compound="COC(=O)[C@@H](CCSC)NC(=O)[C@H](CC(C)C)SCCNC(=O)[C@H](Cc1ccccc1)NC(=O)[C@@H](Cc1ccccc1)NC(=O)[C@H](CCC(N)=O)NC(=O)[C@H](CCC(N)=O)NC(=O)C1CCCN1C(=O)OC(C)(C)C (stereo in doubt)" measure_name=Activity result="< 2 dose ratio"
compound="COC(=O)[C@@H](CCSC)NC(=O)[C@H](CC(C)C)N(C)C(=O)CN(C)C(=O)[C@H](Cc1ccccc1)NC(=O)[C@@H](Cc1ccccc1)NC(=O)[C@H](CCC(N)=O)NC(=O)[C@H](CCC(N)=O)NC(=O)C1CCCN1C(=O)[C@H](CCCCN)NC(=O)C1CCCN1C(=O)[C@@H](N)CCCN=C(N)N (stereo in doubt)" measure_name=Activity result="< 2 dose ratio"
compound="COC(=O)[C@H](CCSC)NC(=O)[C@H](CC(C)C)NC(=O)[C@@H](Cc1c[nH]c2ccccc12)NC(=O)[C@H](Cc1ccccc1)NC(=O)[C@@H](Cc1ccccc1)NC(=O)[C@H](CCCCN)NC(=O)[C@H](CC(N)=O)NC(=O)C1CCCN1C(=O)[C@H](CCCCN)NC(=O)C1CCCN1C(=O)[C@@H](N)CCCN=C(N)N (stereo in doubt)" measure_name=Activity result="< 2 dose ratio"

The record that follows has no Activity shown yet.
Req: // Activity lookup, key: COC(=O)[C@@H](CCSC)NC(=O)[C@H](CC(C)C)SCCNC(=O)[C@H](Cc1ccccc1)NC(=O)[C@@H](Cc1ccccc1)NC(=O)[C@H](CCCN=C(N)N)NC(=O)[C@H](CC(N)=O)NC(=O)C1CCCN1C(=O)[C@H](CCCCNC(=O)OCc1ccccc1)NC(=O)C1CCCN1C(=O)[C@H](CCCN=C(N)N)NC(=O)OCc1ccccc1 (stereo in doubt)
Resp: 18.5 dose ratio

###

- Assay Target: Substance-P receptor (Rattus norvegicus) (UniProt P14600)
- Sequence (P14600 whole entry, looked up): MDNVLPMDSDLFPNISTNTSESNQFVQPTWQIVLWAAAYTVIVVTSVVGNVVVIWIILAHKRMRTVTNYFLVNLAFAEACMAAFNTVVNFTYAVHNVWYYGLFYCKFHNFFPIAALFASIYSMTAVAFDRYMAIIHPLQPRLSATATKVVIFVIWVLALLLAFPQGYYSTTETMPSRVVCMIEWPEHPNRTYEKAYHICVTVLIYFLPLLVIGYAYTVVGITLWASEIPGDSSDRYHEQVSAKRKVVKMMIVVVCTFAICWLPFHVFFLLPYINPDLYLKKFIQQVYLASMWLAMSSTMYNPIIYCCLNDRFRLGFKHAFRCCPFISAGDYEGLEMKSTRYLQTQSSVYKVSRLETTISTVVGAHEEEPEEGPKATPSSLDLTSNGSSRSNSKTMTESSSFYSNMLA
- Experiment Notes: Antagonistic activity against Substance P receptor in rat spinal cord at concentration of 50 uM.
Measure Name: Change in amplitude response (%)
Dear colleague, please return just the value in %, with no unit written.

compound=COC(=O)[C@H](CCSC)NC(=O)[C@H](CC(C)C)NC(=O)[C@@H](Cc1c[nH]c2ccccc12)NC(=O)[C@H](Cc1ccccc1)NC(=O)[C@@H](Cc1ccccc1)NC(=O)[C@H](CCCN=C(N)N)NC(=O)[C@H](CC(N)=O)NC(=O)OC(C)(C)C recorded_number=-17
compound="COC(=O)[C@H](CCSC)NC(=O)[C@H](CC(C)C)NC(=O)[C@@H](Cc1c[nH]c2ccccc12)NC(=O)[C@H](Cc1ccccc1)NC(=O)[C@@H](Cc1ccccc1)NC(=O)[C@H](CCCN=C(N)N)NC(=O)[C@H](CC(N)=O)NC(=O)C1CCCN1C(=O)[C@H](CCCCNC(=O)OCc1ccccc1)NC(=O)C1CCCN1C(=O)[C@H](CCCN=C(N)N)NC(=O)OCc1ccccc1 (stereo in doubt)" recorded_number=-37

Now consider the entry below.
Req: Name the reported Change in amplitude response value associated with the compound COC(=O)[C@@H](CCSC)NC(=O)C(CC(C)C)SCCNC(=O)[C@H](Cc1ccccc1)NC(=O)[C@@H](Cc1ccccc1)NC(=O)[C@H](CCC(N)=O)NC(=O)[C@H](CCC(N)=O)NC(=O)C1CCCN1C(=O)OC(C)(C)C (stereo in doubt)
Resp: -62

###

- Assay Target: Substance-P receptor (Cavia porcellus)
- Experiment Notes: In vitro inhibition of substance P (6-11) hexapeptide induced contractions of the guinea pig ileum at 10 uM.
- Format: tissue-based
Measure Name: Activity (dose ratio)
Write the value in dose ratio as a bare number.

compound="COC(=O)[C@@H](CCSC)NC(=O)C(CC(C)C)NC(=O)[C@@H](Cc1c[nH]c2ccccc12)NC(=O)[C@H](Cc1c[nH]c2ccccc12)NC(=O)[C@@H](Cc1c[nH]c2ccccc12)NC(=O)[C@H](CCC(N)=O)NC(=O)[C@H](CCC(N)=O)NC(=O)[C@@H]1CCCN1C(=O)[C@H](CCCCNC(=O)OCc1ccccc1)NC(=O)[C@@H]1CCCN1C(=O)[C@H](CCCN=C(N)N)NC(=O)OCc1ccccc1 (stereo in doubt)" measure_name=Activity recorded_number=10.7

Please find the next compound below.
Req: Give the measured Activity of COC(=O)[C@H](CCSC)NC(=O)[C@H](CC(C)C)NC(=O)[C@@H](Cc1c[nH]c2ccccc12)NC(=O)[C@H](Cc1ccccc1)NC(=O)[C@@H](Cc1ccccc1)NC(=O)[C@H](CCCN=C(N)N)NC(=O)[C@H](CC(N)=O)NC(=O)C1CCCN1C(=O)[C@H](CCCCNC(=O)OCc1ccccc1)NC(=O)C1CCCN1C(=O)[C@H](CCCN=C(N)N)NC(=O)OCc1ccccc1 (stereo in doubt) .
Resp: 11.1

###

- Assay Target: Substance-P receptor (Cavia porcellus) (UniProt P30547)
- Experiment Notes: In vitro inhibition of substance P (6-11) hexapeptide induced contractions of the guinea pig ileum at 5 uM.
- Type: tissue-based
Measure Name: Activity (dose ratio)
# output: bare number, implied unit dose ratio

molecule="COC(=O)[C@@H](CCSC)NC(=O)[C@H](CC(C)C)SCCNC(=O)[C@H](Cc1ccccc1)NC(=O)[C@@H](Cc1ccccc1)NC(=O)[C@H](CCC(N)=O)NC(=O)[C@H](CCC(N)=O)NC(=O)C1CCCN1C(=O)OC(C)(C)C (stereo in doubt)" unit_string="dose ratio" recorded_number=3

Req: Which Activity is reported for this molecule? COC(=O)[C@H](CCSC)NC(=O)[C@H](CC(C)C)NC(=O)[C@@H](Cc1c[nH]c2ccccc12)NC(=O)[C@H](Cc1ccccc1)NC(=O)[C@@H](Cc1ccccc1)NC(=O)[C@H](CCCN=C(N)N)NC(=O)[C@H](CC(N)=O)NC(=O)C1CCCN1C(=O)[C@H](CCCCN)NC(=O)C1CCCN1C(=O)[C@@H](N)CCCN=C(N)N (stereo in doubt)
Resp: 2.2

###

- Assay Target: Substance-P receptor (Cavia porcellus) (UniProt P30547)
- Experiment Notes: In vitro inhibition of substance P induced contractions of the guinea pig ileum at 10 uM.
- Assay type: tissue-based
Measure Name: Activity (dose ratio)
Respond with the bare value in dose ratio.

// solved cases for Activity follow
compound="COC(=O)[C@H](CCSC)NC(=O)[C@H](CC(C)C)NC(=O)[C@@H](Cc1c[nH]c2ccccc12)NC(=O)[C@H](Cc1ccccc1)NC(=O)[C@@H](Cc1ccccc1)NC(=O)[C@H](CCCN=C(N)N)NC(=O)[C@H](CC(N)=O)NC(=O)C1CCCN1C(=O)[C@H](CCCCN)NC(=O)C1CCCN1C(=O)[C@@H](N)CCCN=C(N)N (stereo in doubt)" measure_name=Activity recorded_number=6
compound="COC(=O)[C@H](CCSC)NC(=O)[C@H](CC(C)C)NC(=O)[C@@H](Cc1c[nH]c2ccccc12)NC(=O)[C@H](Cc1ccccc1)NC(=O)[C@@H](Cc1ccccc1)NC(=O)[C@H](CCCN=C(N)N)NC(=O)[C@H](CC(N)=O)NC(=O)C1CCCN1C(=O)[C@H](CCCCNC(=O)OCc1ccccc1)NC(=O)C1CCCN1C(=O)[C@H](CCCN=C(N)N)NC(=O)OCc1ccccc1 (stereo in doubt)" measure_name=Activity recorded_number=31.1
compound=COC(=O)[C@@H](CCSC)NC(=O)[C@H](CC(C)C)SCCNC(=O)[C@H](Cc1ccccc1)NC(=O)[C@@H](Cc1ccccc1)NC(=O)[C@H](CCCN=C(N)N)NC(=O)[C@H](CC(N)=O)NC(=O)OCc1ccccc1 measure_name=Activity recorded_number=18.2
compound=COC(=O)[C@@H](CCSC)NC(=O)[C@@H](CC(C)C)NC(=O)CNC(=O)[C@@H](Cc1c[nH]c2ccccc12)NC(=O)[C@@H](Cc1c[nH]c2ccccc12)NC(=O)[C@H](CCC(N)=O)NC(=O)[C@H](CCC(N)=O)NC(=O)[C@@H]1CCCN1C(=O)[C@H](CCCCNC(=O)OCc1ccccc1)NC(=O)[C@@H]1CCCN1C(=O)[C@H](CCCN=C(N)N)NC(=O)OCc1ccccc1 measure_name=Activity recorded_number=17.2
compound="COC(=O)[C@@H](CCSC)NC(=O)C(CC(C)C)NC(=O)[C@@H](Cc1c[nH]c2ccccc12)NC(=O)[C@H](Cc1c[nH]c2ccccc12)NC(=O)[C@@H](Cc1c[nH]c2ccccc12)NC(=O)[C@H](CCC(N)=O)NC(=O)[C@H](CCC(N)=O)NC(=O)[C@@H]1CCCN1C(=O)[C@H](CCCCNC(=O)OCc1ccccc1)NC(=O)[C@@H]1CCCN1C(=O)[C@H](CCCN=C(N)N)NC(=O)OCc1ccccc1 (stereo in doubt)" measure_name=Activity recorded_number=9.8

Req: Record request: Activity value, item COC(=O)[C@@H](CCSC)NC(=O)[C@H](CC(C)C)SCCNC(=O)[C@H](Cc1ccccc1)NC(=O)[C@@H](Cc1ccccc1)NC(=O)[C@H](CCC(N)=O)NC(=O)[C@H](CCC(N)=O)NC(=O)C1CCCN1C(=O)OC(C)(C)C (stereo in doubt)
Resp: 2.3

Req: Which value of Activity has been reported for "COC(=O)[C@@H](CCSC)NC(=O)[C@H](CC(C)C)NC(=O)CNC(=O)[C@@H](Cc1c[nH]c2ccccc12)NC(=O)[C@@H](Cc1c[nH]c2ccccc12)NC(=O)[C@H](CCC(N)=O)NC(=O)[C@H](CCC(N)=O)NC(=O)[C@@H]1CCCN1C(=O)[C@H](CCCCNC(=O)OCc1ccccc1)NC(=O)[C@@H]1CCCN1C(=O)[C@H](CCCN=C(N)N)NC(=O)OCc1ccccc1" in the records?
Resp: 10.5
